Target: T1, human GFRα3 expressed with a C-terminal mFc tag (human)
T1 construct: also called hGFRα3-mFc
T1 chain: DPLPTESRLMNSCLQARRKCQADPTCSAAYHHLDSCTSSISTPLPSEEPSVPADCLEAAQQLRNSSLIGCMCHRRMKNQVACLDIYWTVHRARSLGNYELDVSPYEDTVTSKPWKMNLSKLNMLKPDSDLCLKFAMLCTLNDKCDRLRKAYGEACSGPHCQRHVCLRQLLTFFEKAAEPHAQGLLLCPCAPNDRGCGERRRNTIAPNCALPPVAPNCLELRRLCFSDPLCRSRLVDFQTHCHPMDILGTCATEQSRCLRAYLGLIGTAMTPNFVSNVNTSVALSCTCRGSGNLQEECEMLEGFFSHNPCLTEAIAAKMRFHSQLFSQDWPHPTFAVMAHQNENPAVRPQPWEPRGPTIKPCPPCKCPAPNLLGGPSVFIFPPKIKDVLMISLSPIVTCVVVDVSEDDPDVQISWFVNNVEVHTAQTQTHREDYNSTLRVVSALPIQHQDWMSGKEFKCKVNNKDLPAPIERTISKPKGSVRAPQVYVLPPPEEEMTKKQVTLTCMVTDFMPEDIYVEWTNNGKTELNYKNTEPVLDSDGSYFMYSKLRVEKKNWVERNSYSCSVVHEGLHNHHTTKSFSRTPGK
Assay: SPR, Ab captured, 25C
Quick reference for Kd among some binders

Study these solved cases before continuing.
{"columns": ["BINDER", "EXPERIMENTAL RESULT"],
 "data": [
  ["H4H2342P (antibody, human IgG4, V domains shown, human IgG4 Fc (H4H)) VH: EVQLLESGGGLVQPGGSLRLSCAASGFTFSTYAMSWVRQAPGKGLEWVSAIRGNGVNTYYGDSMKGRFTISRDNSKDTLYLQMNSLRAEDTAVYYCAKNKWELLVFEYWGQGTLVTVSS VL: DIQMTQSPSSLSASVGDRVTITCRASQDISNYLAWYQQKPGKVPKLLIYAASTLQSGVPFRFSGSGSGTDFTLTISSLQPEDVATYYCQKYNSAPPFGPGTKVDIK", "≤ 1.51 pM"],
  ["H4H2364S (antibody, human IgG4, V domains shown, human IgG4 Fc (H4H)) VH: EVQLVESGGGLEQPGGSLRLSCAASGFTFSSYVMSWVRQVPGKGLEWVSVISGSGGSTYYADSVKGRFTISRDNSKNTLYLQMNSLRAEDTAVYYCAKPSSYSSSNFHYGMDVWGQGTTVTVSS VL: DIQMTQSPYSVSASVGDRVTITCRASQGISSWLAWYQQKPGRAPKLLIYAASSLQSGVPSRFSGSGSGTDFTLTISSLQPEDFATYYCQKTNSFPFTFGPGTKVEIK", "≤ 1.3 pM"]
]}

Let us move to another entry and its Kd.
Q) Value lookup for Kd; key = H4H2352S (antibody, human IgG4, V domains shown, human IgG4 Fc (H4H); also called H4H2352S-1) VH: EVQLVQSGAEVKKPGASVKVSCKASGYTFTNYGITWVRQAPGQGLEWMGWISAYNGNTGYAQKFQGRVTMTTDTSTSTAYMELRSLRSDDTAVYYCAREDYDFWRAFDIWGQGTMVTVSS VL: EIVLTQSPGTLSLSPGERATLSCRASQSVSSTYLAWLQQKPGQAPRLLIYGASSRATGIPDRFSGSGSGTDFTLTINRLEPEDFAVYYCQQYAYSPYTFGQGTKLEIK
A) ≤ 0.467 pM
